Data credit: the SangsterLogP compilation

Each record here notes measured logP.
propertyMeasured: logP

* c1ccc2nc(N3CCNCC3)ccc2c1 | 2.04
* FC(F)(F)c1cccc(N2CCNCC2)c1 | 2.43
* Clc1cccc(N2CCNCC2)c1 | 2.11
* Fc1cnc(N2CCNCC2)nc1 | 0.97
* Cc1ccccc1N1CCNCC1 | 2.14
* c1ccc2c(N3CCNCC3)nsc2c1 | 2.14
* Clc1ccc(N2CCNCC2)cc1 | 2.01
* COc1ccccc1N1CCNCC1 | 1.09
* c1ccc(N2CCNCC2)nc1 | 0.74
* c1cnc(N2CCNCC2)nc1 | 0.49
* c1csc(N2CCNCC2)n1 | 0.61
* Clc1ccccc1N1CCNCC1 | 2.13
* Fc1ccc(N2CCNCC2)cc1 | 1.28
